I'd be grateful if you could share measured IC50 for these entries.
TEST TARGET: 5-HT2C receptor (Homo sapiens, UniProt P28335)
Sequence (P28335 33-458): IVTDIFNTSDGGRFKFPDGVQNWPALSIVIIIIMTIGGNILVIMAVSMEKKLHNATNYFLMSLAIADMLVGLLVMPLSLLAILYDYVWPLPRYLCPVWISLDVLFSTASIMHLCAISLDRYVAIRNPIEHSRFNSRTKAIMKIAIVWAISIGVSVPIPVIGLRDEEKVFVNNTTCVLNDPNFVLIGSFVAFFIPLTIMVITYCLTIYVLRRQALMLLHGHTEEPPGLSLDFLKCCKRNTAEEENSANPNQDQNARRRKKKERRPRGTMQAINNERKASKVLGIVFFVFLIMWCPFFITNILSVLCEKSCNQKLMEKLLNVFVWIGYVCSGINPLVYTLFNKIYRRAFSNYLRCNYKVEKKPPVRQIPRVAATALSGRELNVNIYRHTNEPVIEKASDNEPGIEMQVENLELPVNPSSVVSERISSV
ASSAY NOTES: R-SAT functional receptor assay, inverse agonist activity at 5-HT2C
Counter-ions that a name gives are not always drawn.
Give bare numbers, in µM.

The cases that follow already have their IC50 on record.
Prompt line: Write down the reported IC50 of CN1CCC(N(Cc2ccc(F)cc2)C(=O)NCc2ccc(OCC(C)(C)O)cc2)CC1 [Formula (III), Hydrochloride] , test system: 5-HT2C receptor (Homo sapiens, UniProt P28335).
Response line: 0.794

Prompt line: Also C[C@H](CO)COc1ccc(CNC(=O)N(Cc2ccc(F)cc2)C2CCN(C)CC2)cc1 ?
Response line: 0.2

New cases:
Prompt line: Notebook: pull reported IC50 for 5-HT2C receptor (Homo sapiens, UniProt P28335), entry CC(C)COc1ccc(CNC(=O)N(Cc2ccc(F)cc2)C2CC[N+](C)([O-])CC2)cc1 (stereo not drawn)
Response line: 2
